// data source = the supplement of paper PMC11061612

Catalogue of combination Emax values
- System: SUP-M2 (T-Cell Non-Hodgkin's Lymphoma)
- Assay: combination Emax (second highest fraction inhibited in the dose matrix, 72 h); higher = more inhibition; extreme values may be limits of the assay
# respond with the number and nothing more

Q: Find the recorded combination Emax belonging to Cc1c2c(nn1C)CSCc1cc(n(C)n1)CSc1cc(c3ccccc3c1)OCCCc1c(C(=O)O)n(C)c3c-2c(Cl)ccc13 [AZD5991] + C[C@@H](Nc1cc(F)cc(F)c1)c1cc(C(=O)N(C)C)cc2c(=O)cc(N3CCOCC3)oc12 [AZD8186] (first compound max 1 µM, 7x7, partner max 3 µM) and report it.
A: 0.996

Q: Given CN(CCO)CC[C@H](CSc1ccccc1)Nc1ccc(S(=O)(=O)NC(=O)c2ccc(N3CCC([C@@H](O)c4ccccc4-c4ccc(Cl)cc4)CC3)cc2)cc1S(=O)(=O)C(F)(F)F [AZD4320] + C=CCn1c(=O)c2cnc(Nc3ccc(N4CCN(C)CC4)cc3)nc2n1-c1cccc(C(C)(C)O)n1 [AZD1775] (first compound max 1 µM, partner max 1 µM) , state its recorded combination Emax.
A: 1

Q: If you can, please state the reported combination Emax value of Cc1c2c(nn1C)CSCc1cc(n(C)n1)CSc1cc(c3ccccc3c1)OCCCc1c(C(=O)O)n(C)c3c-2c(Cl)ccc13 [AZD5991] + Cn1cnc2c(F)c(Nc3ccc(Br)cc3Cl)c(C(=O)NOCCO)cc21 [Selumetinib] (first compound max 1 µM, 7x7, partner max 3 µM) .
A: 1
